Exercise: state measured RP-LC retention time for each of the molecules provided.
# assay explanation: gradient 5% acetonitrile 3 min, to 50% in 2 min, to 85% in 15 min, held 3 min, 100 µL/min
# condition notes: column: Zorbax Extend-C18 2.1 x 50 mm; eluents: water / acetonitrile, 0.1% formic acid
Respond with the bare value in s.

Prompt: Tell me the measured RP-LC retention time of Cc1c(C(=O)NC2CC2)cnn1-c1ccc(SCc2ccccc2)nn1 , please.
Completion: 866

Prompt: Param item = O=C(Cc1ccccc1F)NC(c1ccccc1)c1nnc(N2CCCC2)o1 (stereo not given) ; retrieve measured RP-LC retention time.
Completion: 784

Prompt: Entry Cc1cc(=O)n(CC(=O)NCc2ccccc2)c(N2CCCC2)n1 : reported RP-LC retention time = ?
Completion: 606

Prompt: Can you look up the measured RP-LC retention time of O=S(=O)(c1ccc(Cl)cc1)N1CCC2(CC1)NCCN=C2NCc1ccccc1F for me?
Completion: 730

Prompt: Can you share its RP-LC retention time? I mean this molecule: CC1CCCN(Cc2nc(-c3ccc(N4CCSCC4)nc3)no2)C1 (stereo not given)
Completion: 856

---

# assay explanation: gradient 5% acetonitrile 3 min, to 50% in 2 min, to 85% in 15 min, held 3 min, 100 µL/min
# condition notes: column: Zorbax Extend-C18 2.1 x 50 mm; eluents: water / acetonitrile, 0.1% formic acid
observation type: RP-LC retention time (s)
Write it as a number; the unit s goes unstated.

Prompt: RP-LC retention time for CCCCOc1ccc(-c2nc(C3CC(=O)N(c4ccc(CC)cc4)C3)no2)cc1 (stereo not drawn) ?
Completion: 1390

Prompt: Which value of RP-LC retention time has been reported for O=C1CC(c2nc(-c3ccccc3F)no2)CN1c1ccc2c(c1)OCO2 (stereo not drawn) in the records?
Completion: 865

Prompt: Given the compound CC(C)n1cnc(S(=O)(=O)N2CCCC(C(=O)Nc3cccc4c3CCCC4)C2)c1 (stereo not drawn) , what is its reported RP-LC retention time?
Completion: 865

Prompt: # input compound: CN(Cc1ccco1)C(=O)CC1CCN(C(=O)c2cc3ccccc3[nH]2)CC1 ; wanted: its RP-LC retention time
Completion: 826

Prompt: Fill in the blank: the reported RP-LC retention time of COc1c(C(=O)NC(C)(C)C)sc2cccc(F)c12 is ____.
Completion: 1110

Prompt: // returns reported RP-LC retention time for input CCCNC(=O)N1c2ccccc2NC2=C(C(=O)CC(c3ccco3)C2)C1c1ccc(OC)cc1 (stereo not drawn)
Completion: 805

Prompt: Entry COC(=O)c1c(C)[nH]c(C(=O)N2CCC(CC(=O)NCCc3c[nH]c4ccccc34)CC2)c1C has what RP-LC retention time?
Completion: 722

Prompt: For the compound Cc1cccc(-c2noc(CN3N=NC4C(=O)N(c5cccc(Cl)c5)C(=O)C43)n2)c1 (stereo not drawn) , what RP-LC retention time is on record?
Completion: 1060

---

# assay explanation: gradient 5% acetonitrile 3 min, to 50% in 2 min, to 85% in 15 min, held 3 min, 100 µL/min
# condition notes: column: Zorbax Extend-C18 2.1 x 50 mm; eluents: water / acetonitrile, 0.1% formic acid
Consider the following molecules; for each one, report its RP-LC retention time.
Write the number in s without appending the unit.

Prompt: Requested read-out: RP-LC retention time. Entry: O=C(Cn1nc2c(cc1=O)CCCCC2)Nc1nc(-c2cccnc2)cs1
Completion: 646

Prompt: Need RP-LC retention time of Cc1ccc(NS(=O)(=O)c2cc(-c3nc(C(C)(C)C)cs3)cs2)cc1 , thanks.
Completion: 1210

Prompt: # RP-LC retention time lookup, item COC(=O)c1cnc2nc(C)ccc2c1Nc1ccc(Br)cc1C
Completion: 732

Prompt: Sample COc1ccc(OC)c(N2C(=O)c3cccnc3C2Nc2ccc(C(C)=O)cc2)c1 (stereo unspecified) — what was its RP-LC retention time?
Completion: 698

Prompt: # input molecule: CC(NC(=O)C1CCN(c2cncnc2N2CCOCC2)CC1)c1ccccn1 (stereo unspecified) ; wanted: its RP-LC retention time
Completion: 547

Prompt: Report RP-LC retention time for COCc1c(C(=O)O)nnn1Cc1ccc(OC)c(F)c1 please.
Completion: 658

---

# assay explanation: gradient 5% acetonitrile 3 min, to 50% in 2 min, to 85% in 15 min, held 3 min, 100 µL/min
# condition notes: column: Zorbax Extend-C18 2.1 x 50 mm; eluents: water / acetonitrile, 0.1% formic acid
I'd appreciate it if you could supply RP-LC retention time values for the items below.
Kindly write the number and append the unit.

Prompt: Sample Cc1ccc(-c2noc(Cc3nc(-c4ccc(C)cc4C)cs3)n2)cc1 — what was its RP-LC retention time?
Completion: 1190 s

Prompt: Returns the measured RP-LC retention time for the input compound. Input: CCCCC(=O)Nc1ncn[nH]1
Completion: 568 s

Prompt: Fill blank: measured RP-LC retention time of the compound O=S(=O)(CCc1noc(-c2ccc3cc[nH]c3c2)n1)c1ccccc1 is ____.
Completion: 912 s

Prompt: Could you tell me which RP-LC retention time is on file for CC(C)CCN1CCC(N2CCN(C(=O)c3cccs3)CC2)C1=O (centres undefined) ?
Completion: 567 s

Prompt: Please look up its RP-LC retention time: Cc1cc(N2CCN(C(=O)C3CCC3)CC2)nc2nncn12
Completion: 566 s

Prompt: Name the recorded RP-LC retention time for COc1ccc(NC(=O)N2CCOc3ccc(Cl)cc32)cc1OC .
Completion: 870 s

Prompt: So what's the measured RP-LC retention time for this one? CCc1noc(-c2cccnc2N2CCCN(Cc3ccccc3F)CC2)n1
Completion: 662 s

Prompt: Form field: reported RP-LC retention time of CCN1CCCn2nc(C3CCN(C(=O)c4ccc5c(c4)OCO5)CC3)cc2C1=O
Completion: 628 s

Prompt: // lookup RP-LC retention time for COc1ccc(N2CCN(C3=NS(=O)(=O)c4ccccc43)CC2)cc1
Completion: 780 s

Prompt: Query (compound): O=C(C1CCC1)N1CCc2sc(S(=O)(=O)NCc3ccc(F)cc3)cc2C1 ; field requested: RP-LC retention time
Completion: 877 s

Prompt: So what's the measured RP-LC retention time for this one? CCOc1ccc(NC(=O)c2cnc3c(c2)c(=O)n(C)c(=O)n3C)cc1
Completion: 704 s

Prompt: Reported RP-LC retention time for CCOc1ccccc1NC(=O)CSc1nnc2c3cc(-c4ccc(C)c(C)c4)nn3ccn12 : what is it?
Completion: 1090 s

Prompt: I'd like to know its RP-LC retention time. The compound in question is CCN(CC)S(=O)(=O)c1c(C)nc2sc(C)nn12
Completion: 760 s

Prompt: # get_value(readout='RP-LC retention time', item= CCOc1ccc(NC(=O)N2CCCC(C)(C(=O)NCc3cccc(OC)c3)C2)cc1 (centres undefined) )
Completion: 872 s

---

# assay explanation: gradient 5% acetonitrile 3 min, to 50% in 2 min, to 85% in 15 min, held 3 min, 100 µL/min
# condition notes: column: Zorbax Extend-C18 2.1 x 50 mm; eluents: water / acetonitrile, 0.1% formic acid
observation type: RP-LC retention time (s)
Give just the numeric value; s need not be written.

Prompt: Recorded RP-LC retention time of CCn1nccc1C(=O)Nc1ccc2sc(C)nc2c1 , please.
Completion: 697

Prompt: Requested field: RP-LC retention time. Item: CCN(CC)C(=O)c1ccc(-n2nc(C)c3c2CCCC3=O)cc1
Completion: 691

Prompt: So what's the measured RP-LC retention time for this one? COc1ccc(SCC(=O)Nc2c3c(nn2C)CCC3)cc1
Completion: 687

Prompt: Which RP-LC retention time is listed for O=C(NCc1ccc2c(c1)OCO2)C1CC(=O)N(c2ccc3c(c2)CCN3C(=O)C2CC2)C1 (stereo not given) ?
Completion: 714

Prompt: Would you mind telling me what RP-LC retention time value was observed for CC(C)CC(=O)N1CC(c2nc(-c3cccnc3)no2)C2(CCOCC2)C1 (stereo not given) ?
Completion: 706

---

For each record, write down the corresponding RP-LC retention time.
# assay explanation: gradient 5% acetonitrile 3 min, to 50% in 2 min, to 85% in 15 min, held 3 min, 100 µL/min
# condition notes: column: Zorbax Extend-C18 2.1 x 50 mm; eluents: water / acetonitrile, 0.1% formic acid
Numbers only; they are read as s.

Prompt: Consider the molecule shown here: Brc1ccc(-c2nc(-c3ccc4nncn4c3)no2)cc1 What is its recorded RP-LC retention time?
Completion: 913

Prompt: So what's the measured RP-LC retention time for this one? CCN1CCn2c(nc3cc(C(=O)NCc4ccc(Br)cc4)ccc32)C1=O
Completion: 704

Prompt: I have this molecule here, O=C(Cc1ccccc1Cl)Nc1nnc(-c2ccc(OC(F)(F)F)cc2)o1 , and I need its recorded RP-LC retention time.
Completion: 896

Prompt: Can you share its RP-LC retention time? I mean this molecule: C=CCNC(=O)COc1cccc2c(=O)n(CC=C)ccc12
Completion: 700

Prompt: Looking for the measured RP-LC retention time of COCCn1c(C)cc(O)c(C(c2ccc(OC)cc2OC)N2CCCCC2)c1=O (stereo not given) , can you help?
Completion: 688

Prompt: # lookup: RP-LC retention time of CC(C)CC(C(=O)N1CCOCC1)N1CC2=C(C1=O)C(c1ccccc1Cl)NC(=O)N2C (stereo not given)
Completion: 894

Prompt: Sample CC1CC(=O)N(CC(=O)Nc2ccc(F)cc2F)c2ccccc2S1 (stereo not given) — what was its RP-LC retention time?
Completion: 914

Prompt: Query: RP-LC retention time; subject: Cc1ccc(NC(=O)N2CCCC2c2cc(C)on2)c(Cl)c1 (stereo not given)
Completion: 897

Prompt: Form field: reported RP-LC retention time of CCOC(=O)C1CCN(C(=O)Cc2c(C(=O)O)c(C)cn2CC)CC1
Completion: 715

Prompt: Would you kindly share the measured RP-LC retention time for CCCNS(=O)(=O)c1cc(-c2nnc(-c3ccc(OC)c(OC)c3)o2)ccc1C ?
Completion: 901

These data points were gathered from the METLIN SMRT retention time set (Domingo-Almenara et al. 2019).
